Biological target: human CMKLR1 (Homo sapiens, UniProt Q99788)
Construct: host or cells: HEK293A (Invitrogen), stably expressing human Gα15
Sequence (Q99788 whole entry): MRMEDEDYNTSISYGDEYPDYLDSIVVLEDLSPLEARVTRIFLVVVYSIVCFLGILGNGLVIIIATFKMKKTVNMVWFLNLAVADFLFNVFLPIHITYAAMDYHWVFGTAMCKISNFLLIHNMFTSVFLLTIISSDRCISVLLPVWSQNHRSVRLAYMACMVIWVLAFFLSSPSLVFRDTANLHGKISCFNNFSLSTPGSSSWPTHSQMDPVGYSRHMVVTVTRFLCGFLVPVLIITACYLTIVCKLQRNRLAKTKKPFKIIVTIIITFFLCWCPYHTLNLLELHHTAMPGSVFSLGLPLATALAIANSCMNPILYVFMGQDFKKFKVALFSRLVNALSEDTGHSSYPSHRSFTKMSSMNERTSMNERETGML
Assay: Ca2+ mobilization (CellLux imaging) agonist assay in HEK293A cells expressing CMKLR1 and Gα15
Format: cell-based
Settings: Ca2+ mobilization, CMKLR1; decimal comma
Square brackets hold non-standard residues; d marks the D form. Peptide text beside a SMILES is read from it.
PROPERTY MEASURED: max response

Inquiry: Tell me the measured max response of C[C@H](NC(=O)[C@@H](N)Cc1ccc(O)cc1)C(=O)N[C@@H](Cc1ccccc1)C(=O)N[C@H](CO)C(=O)N1CCC[C@H]1C(=O)NCC(=O)N[C@@H](CCC(N)=O)C(=O)N[C@@H](Cc1ccccc1)C(=O)N[C@H](CO)C(=O)O [compound 93] (H-YAF[dS]PGQF[dS]-OH; N-terminus assumed) , please.
Reply text: 1,67 DF/F0

Inquiry: Tell me the measured max response of C[C@H](NC(=O)CN)C(=O)N[C@@H](Cc1ccccc1)C(=O)N[C@@H](CCC(N)=O)C(=O)N[C@@H](Cc1ccccc1)C(=O)N[C@H](CO)C(=O)N[C@@H](C)C(=O)N[C@@H](Cc1ccccc1)C(=O)N[C@H](CO)C(=O)O [compound 100] (H-GAFQF[dS]AF[dS]-OH; N-terminus assumed) , please.
Reply text: 1,69 DF/F0

Inquiry: Tell me the measured max response of CC(C)C[C@H](NC(=O)[C@H](N)Cc1ccc(O)cc1)C(=O)N1CCC[C@H]1C(=O)NCC(=O)N[C@@H](CCC(N)=O)C(=O)N[C@@H](Cc1ccc(O)cc1)C(=O)N[C@@H](C)C(=O)N[C@@H](Cc1ccccc1)C(=O)N[C@@H](Cc1ccccc1)C(=O)O [compound 43] (H-[dY]LPGQYAFF-OH; N-terminus assumed) , please.
Reply text: 1,13 DF/F0

Inquiry: Tell me the measured max response of C[C@H](NC(=O)[C@H](Cc1ccccc1)NC(=O)[C@H](C)NC(=O)[C@H](Cc1ccc(O)cc1)NC(=O)[C@H](C)NC(=O)[C@H](Cc1ccccc1)NC(=O)[C@@H](CO)NC(=O)[C@H](Cc1ccccc1)NC(=O)[C@@H](N)CCC(N)=O)C(=O)O [compound 102] (H-QF[dS]FAYAFA-OH; N-terminus assumed) , please.
Reply text: 1,78 DF/F0

Inquiry: Tell me the measured max response of CC(C)[C@H](NC(=O)[C@@H](N)Cc1ccc(O)cc1)C(=O)N1CCC[C@H]1C(=O)NCC(=O)N[C@@H](CCC(N)=O)C(=O)N[C@@H](Cc1ccccc1)C(=O)N[C@@H](C)C(=O)N[C@@H](Cc1ccccc1)C(=O)N[C@H](Cc1ccccc1)C(=O)O [compound 35] (H-YVPGQFAF[dF]-OH; N-terminus assumed) , please.
Reply text: 0,96 DF/F0

Inquiry: Tell me the measured max response of C[C@H](NC(=O)[C@@H](Cc1ccccc1)NC(=O)[C@H](CCC(N)=O)NC(=O)CNC(=O)[C@@H]1CCCN1C(=O)[C@@H](Cc1ccc(O)cc1)NC(=O)[C@H](N)Cc1ccc(O)cc1)C(=O)N[C@H](Cc1ccc(O)cc1)C(=O)N[C@H](CO)C(N)=O [compound 8] (H-[dY][dY]PGQ[dF]A[dY][dS]-NH2; N-terminus assumed) , please.
Reply text: 1,31 DF/F0
